- assayed.system: T1, Human VEGFA165 (human, UniProt P15692-4 27-191)
- T1 construct: treated as the same molecule; also called antigen VEGFA
- T1 sequence (P15692 other isoform, or with tags, fused parts or gaps limits assumed): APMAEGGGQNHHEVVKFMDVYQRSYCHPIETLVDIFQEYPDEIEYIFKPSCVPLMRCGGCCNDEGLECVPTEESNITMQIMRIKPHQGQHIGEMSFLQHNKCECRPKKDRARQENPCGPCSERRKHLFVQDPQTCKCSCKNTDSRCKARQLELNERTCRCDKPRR
- experiment: SPR Biacore 8K, VEGFA165 amine-coupled on CM5, nanobody as analyte, 1:1 model
recorded.metric: Kd (nM)

binder: V1 (VHH, also called candidate antibody V1; antibody V1) VHH: QLQLVESGGGSVQPGGSLRLSCEVSGRTFSSYTMGWFRQAPGKEREFVVAISKGGYKYDSVSLEARFTISKDNTKNTVYLQMNSLKPEDTAVYYCAATRAYGSSRLRLADTYEYWGQGTQVTVSS
readout.number: 0.247

binder: V1-2m (VHH, Humanized V1) VHH: EVQLVESGGGLVQPGGSLRLSCAASGRTFSSYTMGWFRQAPGKEREFVVAISKGGYKYDSVSLEARFTISRDNSKNTVYLQMNSLRPEDTAVYYCAATRAYGSSRLRLADTYEYWGQGTLVTVSS
readout.number: 0.243

binder: V1-com-78 (VHH, Humanized V1) VHH: EVQLVESGGGLVQPGGSLRLSCAASGRTFSSYTMGWFRQAPGKEREFVVAISKGGYKYDSVSLEARFTISRDNSKNTVYLQMNSLRAEDTAVYYCAATRAYGSSRLRLADTYEYWGQGTLVTVSS
readout.number: 0.257

binder: V1-com-87 (VHH, Humanized V1) VHH: EVQLVESGGGLVQPGGSLRLSCAASGRTFSSYTMGWFRQAPGKEREFVVAISKGGYKYDSVSLEARFTISRDNSKNTLYLQMNSLRPEDTAVYYCAATRAYGSSRLRLADTYEYWGQGTLVTVSS
readout.number: 0.252
